- test system: MCH receptor (Homo sapiens, UniProt Q99705)
- Construct: expressed in transfected cells; host or cells: CHO cells
- Sequence (Q99705 whole entry): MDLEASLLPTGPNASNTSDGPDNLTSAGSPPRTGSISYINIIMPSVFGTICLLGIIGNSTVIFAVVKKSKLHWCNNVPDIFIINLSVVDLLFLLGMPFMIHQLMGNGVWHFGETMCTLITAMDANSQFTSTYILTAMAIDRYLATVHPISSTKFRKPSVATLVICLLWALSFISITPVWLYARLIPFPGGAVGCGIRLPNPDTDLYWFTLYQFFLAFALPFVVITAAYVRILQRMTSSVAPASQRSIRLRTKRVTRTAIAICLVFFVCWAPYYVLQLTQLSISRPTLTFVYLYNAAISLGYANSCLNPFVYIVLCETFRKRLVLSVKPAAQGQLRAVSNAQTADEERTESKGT
- procedure text: MCH Receptor Binding Assay
- assay context: [125I]-MCH, SPA, membranes from CHO cells expressing the MCH receptor
- Description: Membranes from CHO cells expressing the MCH receptor were prepared by lysing cells with 5 mM HEPES for 15 min at 4C. Cell lysates were centrifuged ([…], 15 min) and the pellet was re-suspended in 5 mM HEPES. […] Nonspecific binding was determined by including 1 μM MCH in the binding reaction. […] Plates were then analyzed in a TOPCOUNT microplate scintillation counter (Packard). Data was analyzed and Ki values were determined using GraphPad Prism.
Each record is given 1 (yes) if its reported Ki is strictly below 50 nM. Records at or above 50 nM are given 0 (no).

Some entries whose results are on file:
- compound: "N#Cc1cccc(-c2ccc(C3(CCC(=O)Nc4ccc(Cl)c(C(F)(F)F)c4)CCN(CC4CC4)CC3)cc2)c1"
  assigned category: "0 (no)"
- compound: "N#Cc1cccc(-c2ccc(C3(OCC(=O)Nc4cc(Cl)cc(Cl)c4)CCN(C4CCCCC4)CC3)cc2)c1"
  assigned category: "1 (yes)"
- compound: "N#Cc1cccc(-c2ccc(C3(OCC(=O)Nc4cc(Cl)cc(Cl)c4)CCN(CC4CC4)CC3)cc2)c1"
  assigned category: "1 (yes)"
- compound: "CC(CCN1CCC(OCC(=O)Nc2cc(Cl)cc(Cl)c2)(c2ccc(-c3cccc(C#N)c3)cc2)CC1)c1ccccc1 (stereo not drawn)"
  assigned category: "0 (no)"
- compound: "N#Cc1cccc(-c2ccc(C3(CCC(=O)Nc4ccc(F)c(F)c4)CCN(C4CCC4)CC3)cc2)c1"
  assigned category: "1 (yes)"
- compound: "N#Cc1cccc(-c2ccc(C3(OCC(=O)Nc4ccc(F)c(Cl)c4)CCN(CCO)CC3)cc2)c1"
  assigned category: "1 (yes)"

**Query** For CC(=O)C1CCC(N2CCC(OCC(=O)Nc3cc(Cl)cc(Cl)c3)(c3ccc(-c4cccc(C#N)c4)cc3)CC2)CC1 (stereo not drawn) , is the recorded Ki below the cut-off of 50 nM?
**Result** 1 (yes)

**Query** For CC(=O)N1CCC(CCC(=O)Nc2ccc(F)c(F)c2)(c2ccc(-c3cccc(C#N)c3)cc2)CC1 , is the recorded Ki below the cut-off of 50 nM?
**Result** 0 (no)

**Query** For COC1CCCC(CN2CCC(OCC(=O)Nc3cc(Cl)cc(Cl)c3)(c3ccc(-c4cccc(C#N)c4)cc3)CC2)O1 (stereo not drawn) , is the recorded Ki below the cut-off of 50 nM?
**Result** 1 (yes)

**Query** For N#Cc1cccc(-c2ccc(C3(CCC(=O)Nc4ccc(F)c(F)c4)CCN(C4CCCC4)CC3)cc2)c1 , is the recorded Ki below the cut-off of 50 nM?
**Result** 1 (yes)

**Query** For N#Cc1cccc(-c2ccc(C3(NCC(=O)Nc4cc(Cl)cc(Cl)c4)CCN(C4CCCC4)CC3)cc2)c1 , is the recorded Ki below the cut-off of 50 nM?
**Result** 1 (yes)

**Query** For O=C(CNC1(c2ccc(-c3cccc(Cl)c3)cc2)CCN(C2CCCC2)CC1)Nc1ccc(F)c(Cl)c1 , is the recorded Ki below the cut-off of 50 nM?
**Result** 0 (no)
